src = PubChem BioAssay

- EXPERIMENTAL SYSTEM: Pantothenate synthetase (Mycobacterium tuberculosis (strain ATCC 25618 / H37Rv))
- TEST METHOD NOTES: Coupled enzyme confirmation of inhibitors against recombinant Mtb PanC (AID 375);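 further: 0% = full reaction with vehicle and 100% = no enzyme background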
- EXPERIMENTAL SETUP: coupled enzyme assay; at 10 µM, stronger effect = higher value
MEASUREMENT KIND: inhibition (%)
Numbers only, in %.

Some molecules with known inhibition results, for comparison:
| COMPOUND | RECORDED NUMBER |
| --- | --- |
| O=C1CN(c2ccccc2F)C(=O)CN1c1ccccc1F | 0 |
| CCCCN(C)C(=O)CS(=O)(=O)Cc1nc(-c2cccc(OC)c2)oc1C | 0 |
| CCn1cc(C(=O)N=c2sc3ccccc3n2C)c(=O)c2ccc(C)nc21 | 0 |
| COc1ccc(-c2nnn(CC(=O)c3ccc4c(c3)OCCO4)n2)cc1OC | 0 |
| Cc1c(C(=O)OCC(C)(C)CN(C)C)oc2ccccc12 | 1 |

Looking up Cc1sc(NC(=O)CSc2nnc(COc3ccccc3)n2C)c(C#N)c1C , I see its inhibition listed as 6

* * *

Provide the recorded inhibition for the entries that follow.
- EXPERIMENTAL SYSTEM: Pantothenate synthetase (Mycobacterium tuberculosis (strain ATCC 25618 / H37Rv))
- TEST METHOD NOTES: Coupled enzyme confirmation of inhibitors against recombinant Mtb PanC (AID 375);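 further: 0% = full reaction with vehicle and 100% = no enzyme background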
- EXPERIMENTAL SETUP: coupled enzyme assay; at 10 µM, stronger effect = higher value
Calls of active or inactive are those of the source. How the calls were made is not given here.

| MOLECULE | EXPERIMENTAL SYSTEM | MEASUREMENT KIND | RESULT |
| --- | --- | --- | --- |
| COc1ccc2c(c1OC)C(=O)OC2CC(=O)c1ccc(O)cc1 (configuration not stated) | Pantothenate synthetase (Mycobacterium tuberculosis (strain ATCC 25618 / H37Rv)) | inhibition | 0% (inactive) |

I would be grateful if you could provide inhibition for each of the following entries.
1. Cc1cccc(-n2ncc(C#N)c2N)c1
2. COC(=O)CSc1nnc(-c2ccncc2)o1
3. Cc1ccc(NC(=O)Cn2cccc2)cc1Cl

1: 1% (inactive); 2: 0% (inactive); 3: 0% (inactive)

I would be grateful if you could provide inhibition for each of the following entries.
1. Cc1cc(N=Cc2cc(Br)ccc2O)no1
2. CCn1cc(C(=O)NCCC2=CCCCC2)c(=O)c2cc(S(=O)(=O)N(C)C)ccc21

1: 6% (inactive); 2: 0% (inactive)

* * *

- TEST METHOD NOTES: viability of HCT116 without oncogenic beta-catenin – human colon tumor cells, pilot screen (AID 823);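 further: 0% = wells killed by 20 µM Hyamine and 100% = untreated DMSO cell wells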
- EXPERIMENTAL SETUP: HCT116 beta-catenin knockout viability, CellTiter-Glo, 60 h; at 10 µM; stronger effect = lower value
Results filed as inconclusive are left out. Activity calls are given as the source filed them.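 How the source made its calls: active means cell viability at or below a set limit in both duplicate runs, the limit being the all-compound median minus 4 SD (cut at about 23% in these data, passing the limit was not always enough); inconclusive means no clear call, values can overlap the other calls; inactive means the rest.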
MEASUREMENT KIND: viability

Some compounds with known viability results, for comparison:
| COMPOUND | RESULT |
| --- | --- |
| O=C(O)C1CSC(c2cccnc2)N1 (stereo unspecified) | 99.3% (inactive) |
| CC(C)CC1C(C#N)=C(N)Oc2c1c(=O)oc1ccccc21 (stereo unspecified) | 102% (inactive) |
| Cn1cc(C(=O)c2ccccc2)c2ccccc21 | 80.8% (inactive) |

I would be grateful if you could provide viability for each of the following entries.
1. CCOC(=O)C1CCN(/C=C2/C(=O)NC(=O)N(c3ccc(OCC)cc3)C2=O)CC1
2. C=Cn1ccnc1P(=S)(c1c(C)nn(-c2ccccc2)c1C)c1nccn1C=C
3. COc1cc2c(cc1OC)-c1c(OC)c(OC)cc3c1C(C2)N(C)CC3 (stereo unspecified)

1. 98% (inactive)
2. 93.8% (inactive)
3. 73.6% (inactive)

* * *

- EXPERIMENTAL SYSTEM: Pantothenate synthetase (Mycobacterium tuberculosis (strain ATCC 25618 / H37Rv))
- TEST METHOD NOTES: Coupled enzyme confirmation of inhibitors against recombinant Mtb PanC (AID 375);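 further: 0% = full reaction with vehicle and 100% = no enzyme background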
- EXPERIMENTAL SETUP: coupled enzyme assay; at 10 µM, stronger effect = higher value
Provide the recorded inhibition for the entries that follow.
Answers are plain numbers, in %.

I would be grateful if you could provide inhibition for each of the following entries.
1. CC(=O)C1=C(O)C(=O)N(C2CCCCC2)C1c1ccccc1 (centres undefined)
2. Cc1ccc(-c2nnnn2CS(=O)(=O)c2ccccc2)cc1
3. CCOc1ccc(NC(=O)CSc2nccn2C)cc1
4. O=C(CC(Cc1ccccc1)C(=O)O)NCCc1ccc2c(c1)OCO2 (centres undefined)
5. CC(C)c1nnc(NC(=O)CCC(=O)NCc2ccc3c(c2)OCO3)s1
6. CN(C)c1oc(-c2ccccc2Cl)nc1C#N
7. Cc1onc(-c2ccccc2)c1C(N)=O
8. Cc1ccc(C(C)C)c(OCc2nnc(SCC(=O)Nc3ncc(C)s3)n2C)c1

1: 0; 2: 0; 3: 6; 4: 1; 5: 3; 6: 4; 7: 0; 8: 2

* * *

- TEST METHOD NOTES: RAM pathway blockade in budding yeast – dse1pr::URA3 reporter, 5-FOA selection, pilot screen (AID 869);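 further: 0% = DMSO wells with no growth and 100% = 10 µM 1-NA-PP1 with full growth; RAM network block rescues cells from 5-FOA so hits raise OD615 growth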
- EXPERIMENTAL SETUP: S. cerevisiae dse1pr::URA3 5-FOA growth, OD615, 2 d, at 10 µM, stronger effect = higher value
MEASUREMENT KIND: inhibition (%)
Answers are plain numbers, in %.

Some compounds with known inhibition results, for comparison:
| COMPOUND | RECORDED NUMBER |
| --- | --- |
| C=Cn1ccnc1P(=S)(c1c(C)nn(-c2ccccc2)c1C)c1nccn1C=C | 1.75 |
| CN(C)c1ccc(CN2CC=C(c3ccc(F)cc3)CC2)cc1 | 1.31 |
| O=c1c2ccccc2nc(-c2cccs2)n1-c1cnccn1 | 2.33 |
| Cc1cc(C)n2c(Br)c(CN3CC4CC(C3)c3cccc(=O)n3C4)nc2n1 (stereo not drawn) | 1.09 |
| O/N=C/c1c[nH]c2ccccc12 | 2.54 |
| C=CCOC(=O)COc1cc(C)cc2oc(=O)c3c(c12)CCC3 | 1.63 |
| CCCOc1ccccc1C1SCC(=O)Nc2c1c(=O)[nH]n2C(C)CCC (stereo not drawn) | 1.6 |

Looking up Cn1c(O)c(C(=NCCN2CCCCC2)c2ccccc2Cl)c(=O)n(C)c1=O , I see its inhibition listed as -0.185

* * *

- EXPERIMENTAL SYSTEM: Pantothenate synthetase (Mycobacterium tuberculosis (strain ATCC 25618 / H37Rv))
- TEST METHOD NOTES: Coupled enzyme confirmation of inhibitors against recombinant Mtb PanC (AID 375);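 further: 0% = full reaction with vehicle and 100% = no enzyme background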
- EXPERIMENTAL SETUP: coupled enzyme assay; at 10 µM, stronger effect = higher value
MEASUREMENT KIND: inhibition (%)
Answers are plain numbers, in %.

| MOLECULE | inhibition / % |
| --- | --- |
| COc1ccc(CCNc2oc(COc3ccccc3Cl)nc2C#N)cc1OC | 3 |
| Cc1cccc(NC(=O)c2cc3n(n2)C(C(F)(F)F)CC(c2ccc4c(c2)OCO4)N3)c1 (stereo unspecified) | 4 |

I would be grateful if you could provide inhibition for each of the following entries.
1. COc1ccc(C2CC(c3ccc(C)cc3)Nc3ncnn32)cc1 (stereo unspecified)
2. Cc1ccc(-c2noc(CCC(=O)NCCc3ccccc3Cl)n2)cc1
3. CCCN1C2CCCC1CC(NC(=O)Nc1cccc(C(C)=O)c1)C2 (stereo unspecified)
4. CCS(=O)(=O)N1CCCC(c2nc(-c3cccc(OC)c3)no2)C1 (stereo unspecified)
5. COc1ccccc1OCCn1c(=O)sc2ccccc21

0
1
1
0
0

I would be grateful if you could provide inhibition for each of the following entries.
1. CCCCOc1ccccc1C(=O)NCCCC(=O)O
2. Cc1ccc2nsnc2c1S(=O)(=O)N1CCN(Cc2ccc3c(c2)OCO3)CC1
3. Cc1cc(C)cc(N2C(=O)C3C4C=CC(C4)C3C2=O)c1 (stereo unspecified)
4. CCCCOc1cccc(NC(=O)CSc2nccn2C)c1
5. CC(NC(=O)C1CCCN(S(=O)(=O)c2cccs2)C1)c1ccccc1 (stereo unspecified)

1: 0; 2: 5; 3: 0; 4: 2; 5: 0

I would be grateful if you could provide inhibition for each of the following entries.
1. CCCCOC(=O)Cn1c(=O)oc2ccc(C)cc21
2. CC1(C)OC(=O)C(=CNC(CCC(N)=O)C(=O)O)C(=O)O1 (stereo unspecified)
3. CCOC(=O)CN1CC23C=CC(O2)C(C(=O)Nc2ccc(C(C)=O)cc2)C3C1=O (stereo unspecified)
4. CN(CC(=O)N1CCCc2c1c(=O)oc1ccc(O)cc21)Cc1ccccc1
5. O=C1c2ccccc2C(=O)N1C/C=C/CN1C(=O)c2ccccc2C1=O
6. CCc1ccc(NC(=O)c2cc(-c3ccco3)on2)cc1
7. COc1cccc(OCCOCCN(C)CCO)c1

1. 0
2. 3
3. 6
4. 0
5. 0
6. 4
7. 2

I would be grateful if you could provide inhibition for each of the following entries.
1. COc1ccccc1N(CC(=O)NC1CCCC1)C(=O)c1csnn1
2. CCCC(=O)Nc1nnc(Sc2ccc(N(C)C)cc2)s1
3. O=S1(=O)C=CC(Nc2cccc(Cl)c2)C1 (stereo unspecified)
4. COc1ccc(N(CC(=O)Nc2ccc(F)c(Cl)c2)S(=O)(=O)c2c(C)noc2C)cc1
5. CC1(C)CC(=O)C(C=Nc2ccc3c(c2)OCO3)=C(O)C1
6. COc1ccc(C(=O)CSc2nnc(C3CCCCC3)n2N)c(OC)c1
7. COc1ccccc1N1CCN(C(=O)CSc2nc3ncnc(N)c3[nH]2)CC1

1: 1; 2: 0; 3: 0; 4: 11; 5: 7; 6: 0; 7: 8

I would be grateful if you could provide inhibition for each of the following entries.
1. NS(=O)(=O)c1ccc(C(=O)O)cc1
2. Cc1cc(C)n(-c2nnc(C)n2/N=C/c2ccccc2F)n1
3. Cc1ccc(NC(=O)C2CCCN2C(=O)Oc2ccccc2)cc1 (stereo unspecified)
4. O=C(Nc1cc(Cl)ccc1Cl)c1noc2c1CCCC2
5. CCCCN=CC1=C(O)C(C(=O)OC)C(C)(C)CC1=O (stereo unspecified)
6. CCC(=O)OCCn1c(=O)c2cc3c(=O)n(CCOC(=O)CC)c(=O)c3cc2c1=O

0
9
1
2
0
0

I would be grateful if you could provide inhibition for each of the following entries.
1. CCOc1ccc(N(CC(=O)NCc2cccc(OC)c2)S(=O)(=O)c2c(C)noc2C)cc1
2. COc1ccc(C(=O)c2coc3ccc(O)c(CN4CCCCC4)c23)cc1
3. COc1cccc(-n2c(CNc3ccc(F)cc3)nnc2SCC(N)=O)c1
4. Cc1c(C(=O)Nc2ccncc2)oc2c1C(=O)CC(C)(C)C2
5. N#CC1=C(N)Oc2cc(O)ccc2C1C1CCCCC1 (stereo unspecified)
6. CCc1cc(=O)n2[nH]c(C)c(-c3ccccc3OC)c2n1
7. CCOC(=O)CSc1nc(C)c(C(=O)OCC)s1
8. CCN(C(=O)CN1CCN(c2ccccc2OC)CC1)c1c(N)n(Cc2ccccc2)c(=O)[nH]c1=O

[6, 0, 0, 5, 0, 4, 0, 0]

I would be grateful if you could provide inhibition for each of the following entries.
1. Cc1nnc2n(-c3ccc(Cl)cc3)c(=O)c3c4c(sc3n12)CN(C)CC4
2. CC(NC(=O)c1ccc(F)cc1)C(c1cccs1)N1CCN(C)CC1 (stereo unspecified)
3. O=C(c1ccco1)N(Cc1cc2ccccc2[nH]c1=O)C1CCCCC1
4. CCCn1c(=N)n(CCOc2ccc(OC)cc2)c2ccccc21
5. Cc1ccc(S(=O)(=O)N2CCC(C(=O)N[C@@H](Cc3ccccc3)C(=O)O)CC2)cc1
6. Cc1oc(-c2ccccc2)cc1C(N)=O

1. 3
2. 3
3. 0
4. 0
5. 0
6. 0
